Target sequence: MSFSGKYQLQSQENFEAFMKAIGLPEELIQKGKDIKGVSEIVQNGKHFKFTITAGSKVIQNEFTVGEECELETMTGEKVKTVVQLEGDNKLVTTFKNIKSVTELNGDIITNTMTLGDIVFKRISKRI
observed property: pKd
Lab note: report pKd as minus log10 of the concentration in molar units, number only.

[Q] Please give the measured pKd for this molecule: CCCCc1ccc2n1[B-](F)(F)[N+]1=C(CCCCCCCCC(=O)O)C=CC1=C2 [BODIPY 500/510 C4, C9]
[A] 7.05

###

Molecular target: FABP4 (adipocyte, A-FABP) (Homo sapiens)
Sequence (P15090 whole entry): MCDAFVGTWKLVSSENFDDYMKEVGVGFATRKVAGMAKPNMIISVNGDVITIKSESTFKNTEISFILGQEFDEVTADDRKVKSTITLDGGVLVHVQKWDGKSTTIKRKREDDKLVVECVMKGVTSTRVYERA
observed property: pKi
Lab note — pKi values are minus log10 of concentrations in M.

[Q] What does the record list as pKi for C[C@]12C=CC(=O)C=C1CC[C@@H]1[C@@H]2C(=O)C[C@@]2(C)[C@H]1CC[C@]2(O)C(=O)CO ?
[A] 4.45

[Q] Request: C[C@H]1C[C@@H]2[C@H]([C@@H](O)C[C@@]3(C)[C@H]2CC[C@]3(O)C(=O)CO)[C@@]2(C)C=CC(=O)C=C12
[A] 2.70

[Q] Another compound: C[C@]12CCC(=O)C=C1CC[C@@H]1[C@@H]2C(=O)C[C@@]2(C)[C@H]1CC[C@]2(O)C(=O)CO
[A] 3.01

[Q] Here is the next compound: C[C@@H]1C[C@H]2[C@@H]3CCC4=CC(=O)C=C[C@]4(C)[C@@]3(F)[C@@H](O)C[C@]2(C)[C@@]1(O)C(=O)CO
[A] 4.13

[Q] What do you get for C[C@]12C=CC(=O)C=C1CC[C@@H]1[C@@H]2[C@@H](O)C[C@@]2(C)[C@H]1CC[C@]2(O)C(=O)CO ?
[A] 2.94

[Q] C[C@]12CCC(=O)C=C1CC[C@@H]1[C@@H]2[C@@H](O)C[C@@]2(C)[C@H]1CC[C@]2(O)C(=O)CO [Hydrocortisone] , same question.
[A] 3.92

###

Molecular target: UniProt:Q01469
Sequence (Q01469 2-135): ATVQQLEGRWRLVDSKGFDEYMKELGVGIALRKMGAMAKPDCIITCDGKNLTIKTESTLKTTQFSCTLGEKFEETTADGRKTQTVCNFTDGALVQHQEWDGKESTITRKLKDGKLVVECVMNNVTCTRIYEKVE
observed property: pKi
Reminder that pKi is minus the log10 of a molar concentration.

[Q] Which pKi reading was recorded for the molecule C[C@]12CCC(=O)C=C1CC[C@@H]1[C@@H]2C(=O)C[C@@]2(C)[C@H]1CC[C@]2(O)C(=O)CO ?
[A] 3.89

[Q] Please give the result for CCCC1O[C@@H]2C[C@H]3[C@@H]4CCC5=CC(=O)C=C[C@]5(C)[C@H]4[C@@H](O)C[C@]3(C)[C@]2(C(=O)CO)O1 (stereo partly shown) [Budesonide] too.
[A] 4.72

[Q] Subsequent entry: C[C@]12CCC(=O)C=C1CC[C@@H]1[C@@H]2[C@@H](O)C[C@@]2(C)[C@H]1CC[C@]2(O)C(=O)CO [Hydrocortisone]
[A] 4.66

[Q] Now give it for C[C@]12C=CC(=O)C=C1CC[C@@H]1[C@@H]2C(=O)C[C@@]2(C)[C@H]1CC[C@]2(O)C(=O)CO too.
[A] 5.03

###

Target: FABP3 (heart, H-FABP) (Homo sapiens)
Sequence (P05413 whole entry): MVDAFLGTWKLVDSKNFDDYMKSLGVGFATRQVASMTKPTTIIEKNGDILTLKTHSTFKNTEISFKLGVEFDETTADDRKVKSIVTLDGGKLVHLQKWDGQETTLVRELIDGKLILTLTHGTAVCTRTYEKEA
observed property: pKd
Answer as the number alone; pKd is minus log10 of concentration in mol/L.

[Q] Recorded pKd for CCCCc1ccc2n1[B-](F)(F)[N+]1=C(CCCCCCCCC(=O)O)C=CC1=C2 , please?
[A] 7.70

Where these numbers come from: paper doi:10.1101/2021.07.02.450968v1
